Target: PI3Kδ (Homo sapiens, UniProt O00329)
Construct: purchased Merck Millipore
Sequence (O00329 whole entry): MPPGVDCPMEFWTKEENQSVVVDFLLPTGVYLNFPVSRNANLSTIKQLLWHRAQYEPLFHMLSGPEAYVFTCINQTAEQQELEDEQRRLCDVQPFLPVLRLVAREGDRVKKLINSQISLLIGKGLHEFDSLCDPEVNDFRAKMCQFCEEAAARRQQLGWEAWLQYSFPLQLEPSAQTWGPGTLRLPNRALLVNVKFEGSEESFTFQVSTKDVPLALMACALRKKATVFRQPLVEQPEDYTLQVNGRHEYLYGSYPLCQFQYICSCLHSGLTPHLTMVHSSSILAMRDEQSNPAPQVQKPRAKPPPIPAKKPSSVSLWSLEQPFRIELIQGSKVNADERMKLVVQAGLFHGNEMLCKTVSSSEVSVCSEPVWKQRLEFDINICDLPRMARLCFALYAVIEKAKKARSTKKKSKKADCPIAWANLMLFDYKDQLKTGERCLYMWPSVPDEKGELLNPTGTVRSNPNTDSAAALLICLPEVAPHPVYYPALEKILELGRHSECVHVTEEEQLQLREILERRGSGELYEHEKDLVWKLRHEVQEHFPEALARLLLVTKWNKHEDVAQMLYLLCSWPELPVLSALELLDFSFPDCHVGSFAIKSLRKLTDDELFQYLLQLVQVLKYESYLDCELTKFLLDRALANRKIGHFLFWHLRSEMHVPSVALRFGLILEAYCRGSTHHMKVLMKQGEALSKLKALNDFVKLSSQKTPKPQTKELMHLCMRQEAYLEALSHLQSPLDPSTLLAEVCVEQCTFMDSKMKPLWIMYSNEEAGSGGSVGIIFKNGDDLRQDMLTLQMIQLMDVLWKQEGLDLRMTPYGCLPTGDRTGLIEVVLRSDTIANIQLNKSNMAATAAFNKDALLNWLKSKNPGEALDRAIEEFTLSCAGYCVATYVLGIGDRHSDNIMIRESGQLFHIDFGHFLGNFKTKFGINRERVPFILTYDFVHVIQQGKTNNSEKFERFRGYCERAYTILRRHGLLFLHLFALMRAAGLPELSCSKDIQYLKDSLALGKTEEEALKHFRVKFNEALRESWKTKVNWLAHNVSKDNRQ
Sequence (P27986 whole entry, further chain): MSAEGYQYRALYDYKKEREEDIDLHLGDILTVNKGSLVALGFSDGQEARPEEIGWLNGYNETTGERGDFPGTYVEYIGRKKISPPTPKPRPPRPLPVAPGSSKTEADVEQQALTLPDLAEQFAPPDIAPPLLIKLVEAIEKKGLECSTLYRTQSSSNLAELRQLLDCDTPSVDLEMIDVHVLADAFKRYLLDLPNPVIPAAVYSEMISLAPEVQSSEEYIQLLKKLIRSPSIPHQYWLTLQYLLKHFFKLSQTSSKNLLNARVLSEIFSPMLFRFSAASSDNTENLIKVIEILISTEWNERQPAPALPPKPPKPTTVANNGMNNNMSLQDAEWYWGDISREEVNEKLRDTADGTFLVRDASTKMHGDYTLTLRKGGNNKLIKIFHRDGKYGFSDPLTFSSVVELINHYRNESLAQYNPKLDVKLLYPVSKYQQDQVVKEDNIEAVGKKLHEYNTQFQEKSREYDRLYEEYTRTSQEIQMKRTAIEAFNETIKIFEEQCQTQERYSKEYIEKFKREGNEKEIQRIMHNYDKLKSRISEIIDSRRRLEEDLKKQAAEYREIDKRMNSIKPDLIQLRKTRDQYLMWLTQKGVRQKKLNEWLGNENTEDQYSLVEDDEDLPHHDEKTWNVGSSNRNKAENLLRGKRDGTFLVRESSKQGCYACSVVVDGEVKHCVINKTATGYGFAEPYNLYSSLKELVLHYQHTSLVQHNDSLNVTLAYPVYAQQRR
Assay: PI3K kinases inhibition in vitro (ADP-Glo), PI3Kδ
Assay type: biochemical
Conditions: averaged; recombinant kinase, 25° C., 1 h, PIP2 30 μM; read-out: PI3Kδ IC50
value-kind: IC50

Sample records with IC50:
CC(C)(C)N1CCN(Cc2cc3nc(-c4c(F)ccc5[nH]ccc45)cc(N4CCOCC4)n3n2)CC1	< 100 nM
Cc1nc2ccccc2n1-c1cc(N2CCOCC2)n2nc(CN3CCN(C(C)(C)C)CC3)cc2n1	100 to 1000 nM
CC(C)(C)N1CCN(Cc2cc3nc(-c4cccc5[nH]ncc45)cc(N4CCOCC4)n3n2)CC1	< 100 nM
CC(C)(O)C1CCN(Cc2cc3nc(-c4ccc(N)nc4)cc(N4CCOCC4)n3n2)CC1	< 100 nM
CCc1nc2ccccc2n1-c1cc(N2CCOCC2)n2nc(CN3CCN(C(C)(C)C)CC3)cc2n1	< 100 nM

Now for another entry.
What the record says about CC(C)(O)C1CCN(Cc2cc3nc(-c4ccnc5[nH]ccc45)cc(N4CCOCC4)n3n2)CC1 : IC50 is < 100 nM

----------
Molecular target: PI3Kδ (Homo sapiens)
Construct: purchased Merck Millipore
Test: PI3K kinases inhibition in vitro (ADP-Glo), PI3Kδ
Format: biochemical
value-kind: IC50

c1cc(-c2cc(N3CCOCC3)n3nc(CN4CC(N5CCOCC5)C4)cc3n2)c2cc[nH]c2c1	< 100 nM
COc1ccc(N2CCN(Cc3cc4nc(-c5cccc6[nH]ccc56)cc(N5CCOCC5)n4n3)CC2)cc1	100 to 1000 nM
O=S1(=O)CCN(Cc2cc3nc(-c4cccc5[nH]ccc45)cc(N4CCOCC4)n3n2)CC1	100 to 1000 nM
CC(C)(C)C1CCN(Cc2cc3nc(-c4cccc5[nH]ccc45)cc(N4CCOCC4)n3n2)CC1	< 100 nM
CN1CCN(C2CCN(Cc3cc4nc(-c5cccc6[nH]ccc56)cc(N5CCOCC5)n4n3)CC2)CC1	< 100 nM

// for each compound below, give its IC50
1. c1cc(-c2cc(N3CCOCC3)n3nc(CN4CCN(CC5CC5)CC4)cc3n2)c2cc[nH]c2c1
2. CN(C)C1CCN(Cc2cc3nc(-c4cccc5[nH]ccc45)cc(N4CCOCC4)n3n2)CC1
3. COC(=O)C1CCN(Cc2cc3nc(-c4cccc5[nH]ccc45)cc(N4CCOCC4)n3n2)CC1
4. O=S1(=O)CCN(C2CN(Cc3cc4nc(-c5cccc6[nH]ccc56)cc(N5CCOCC5)n4n3)C2)CC1
5. CC(C)(C)N1CCN(Cc2cc3nc(-c4cccc5[nH]ccc45)cc(N4CCOCC4)n3n2)CC1
6. CC(C)(C)N1CCN(Cc2cc3nc(-c4cncc5[nH]ccc45)cc(N4CCOCC4)n3n2)CC1
7. CN1CCN(Cc2cc3nc(-c4cccc5[nH]ccc45)cc(N4CCOCC4)n3n2)CC1
8. CS(=O)(=O)N1CCN(Cc2cc3nc(-c4cccc5[nH]ccc45)cc(N4CCOCC4)n3n2)CC1

OUTPUT:
["< 100 nM", "< 100 nM", "100 to 1000 nM", "< 100 nM", "< 100 nM", "< 100 nM", "100 to 1000 nM", "100 to 1000 nM"]
